# SI A2780Cis per entry
- Tested on: A2780Cis (cisplatin-resistant human ovarian cancer)
- test description: In vitro cytotoxicity, SRB assay, A2780Cis
- Assay type: cell-based
Write the value as a bare number.

Example cases with answers are listed next.
>>> measurement("CC[C@@H](C(=O)[C@@H](C)[C@@H](O)[C@H](C)[C@@H]1O[C@@H]([C@@H](CC)C(=O)O)CC[C@@H]1C)[C@H]1O[C@]2(C=C[C@@H](NC(=O)OCCOCCCl)[C@]3(CC[C@@](C)([C@H]4CC[C@](O)(CC)[C@H](C)O4)O3)O2)[C@H](C)C[C@@H]1C")
58.9
>>> measurement("CC[C@@H](C(=O)[C@@H](C)[C@@H](O)[C@H](C)[C@@H]1O[C@@H]([C@@H](CC)C(=O)O)CC[C@@H]1C)[C@H]1O[C@]2(C=C[C@@H](NS(=O)(=O)c3ccc(C)cc3)[C@]3(CC[C@@](C)([C@H]4CC[C@](O)(CC)[C@H](C)O4)O3)O2)[C@H](C)C[C@@H]1C")
52.7
>>> measurement("CC[C@@H](C(=O)[C@@H](C)[C@@H](O)[C@H](C)[C@@H]1O[C@@H]([C@@H](CC)C(=O)O)CC[C@@H]1C)[C@H]1O[C@]2(C=C[C@@H](NC(=O)NCCCOC)[C@]3(CC[C@@](C)([C@H]4CC[C@](O)(CC)[C@H](C)O4)O3)O2)[C@H](C)C[C@@H]1C")
46.1

*Q* Item under review: `CC[C@@H](C(=O)[C@@H](C)[C@@H](O)[C@H](C)[C@@H]1O[C@@H]([C@@H](CC)C(=O)O)CC[C@@H]1C)[C@H]1O[C@]2(C=C[C@@H](NC(N)=O)[C@]3(CC[C@@](C)([C@H]4CC[C@](O)(CC)[C@H](C)O4)O3)O2)[C@H](C)C[C@@H]1C` . Reported SI A2780Cis?
*A* 33.0

---

- System: MV-4-11 (human biphenotypic leukaemia)
- test description: In vitro cytotoxicity, MTT assay, MV-4-11
- Assay type: cell-based
# SI MV4-11 per entry
Write the value as a bare number.

Example cases with answers are listed next.
>>> measurement("CC[C@@H](C(=O)[C@@H](C)[C@@H](O)[C@H](C)[C@@H]1O[C@@H]([C@@H](CC)C(=O)O)CC[C@@H]1C)[C@H]1O[C@]2(C=C[C@@H](NC(=O)C(=O)NCc3ccccc3Cl)[C@]3(CC[C@@](C)([C@H]4CC[C@](O)(CC)[C@H](C)O4)O3)O2)[C@H](C)C[C@@H]1C [FLC-00477-1•Na]")
46.1
>>> measurement("CC[C@@H](C(=O)[C@@H](C)[C@@H](O)[C@H](C)[C@@H]1O[C@@H]([C@@H](CC)C(=O)O)CC[C@@H]1C)[C@H]1O[C@]2(C=C[C@@H](NC(=O)C(N)=O)[C@]3(CC[C@@](C)([C@H]4CC[C@](O)(CC)[C@H](C)O4)O3)O2)[C@H](C)C[C@@H]1C [FLC-00376-1•Na]")
7.0
>>> measurement("CC[C@@H](C(=O)[C@@H](C)[C@@H](O)[C@H](C)[C@@H]1O[C@@H]([C@@H](CC)C(=O)O)CC[C@@H]1C)[C@H]1O[C@]2(C=C[C@@H](NC(=O)N3CCN(S(C)(=O)=O)C3=O)[C@]3(CC[C@@](C)([C@H]4CC[C@](O)(CC)[C@H](C)O4)O3)O2)[C@H](C)C[C@@H]1C [FLC-00519-1•Na]")
4.0

Consider now this further compound.
*Q* Item under review: CC[C@@H](C(=O)[C@@H](C)[C@@H](O)[C@H](C)[C@@H]1O[C@@H]([C@@H](CC)C(=O)O)CC[C@@H]1C)[C@H]1O[C@]2(C=C[C@@H](NC(=O)C3CCC3)[C@]3(CC[C@@](C)([C@H]4CC[C@](O)(CC)[C@H](C)O4)O3)O2)[C@H](C)C[C@@H]1C [FLC-00463-1•Na] . Reported SI MV4-11?
*A* 96.5

---

- System: PFSK-1 (malignant primitive neuroectodermal tumour)
- test description: In vitro cytotoxicity, SRB assay, PFSK-1
- Type: cell-based
- condition context: Homo sapiens, PFSK-1; 72 h with compound, SRB; n/a = non-active compound; read-out: PFSK-1 IC50
# log10(IC50) per entry
Plainly stated, the numbers are log10 of IC50 given in nM.

Example cases with answers are listed next.
>>> measurement("CC[C@@H](C(=O)[C@@H](C)[C@@H](O)[C@H](C)[C@@H]1O[C@@H]([C@@H](CC)C(=O)O)CC[C@@H]1C)[C@H]1O[C@]2(C=C[C@@H](O)[C@]3(CC[C@@](C)([C@H]4CC[C@](O)(CC)[C@H](C)O4)O3)O2)[C@H](C)C[C@@H]1C [FLC-00001 (SAL), Salinomycin]")
2.53
>>> measurement("CC[C@@H](C(=O)[C@@H](C)[C@@H](O)[C@H](C)[C@@H]1O[C@@H]([C@@H](CC)C(=O)O)CC[C@@H]1C)[C@H]1O[C@]2(C=C[C@@H](NC(=S)NCC(C)C)[C@]3(CC[C@@](C)([C@H]4CC[C@](O)(CC)[C@H](C)O4)O3)O2)[C@H](C)C[C@@H]1C [FLC-00369-1]")
0.77
>>> measurement("CC[C@@H](C(=O)[C@@H](C)[C@@H](O)[C@H](C)[C@@H]1O[C@@H]([C@@H](CC)C(=O)O)CC[C@@H]1C)[C@H]1O[C@]2(C=C[C@@H](NC(=S)Nc3ccc(F)cc3)[C@]3(CC[C@@](C)([C@H]4CC[C@](O)(CC)[C@H](C)O4)O3)O2)[C@H](C)C[C@@H]1C [FLC-00340-1 Na]")
0.97
>>> measurement("CC[C@@H](C(=O)[C@@H](C)[C@@H](O)[C@H](C)[C@@H]1O[C@@H]([C@@H](CC)C(=O)O)CC[C@@H]1C)[C@H]1O[C@]2(C=C[C@@H](NC(=S)Nc3ccc(C(F)(F)F)cc3)[C@]3(CC[C@@](C)([C@H]4CC[C@](O)(CC)[C@H](C)O4)O3)O2)[C@H](C)C[C@@H]1C [FLC-00347-1]")
0.66

*Q* Item under review: CC[C@@H](C(=O)[C@@H](C)[C@@H](O)[C@H](C)[C@@H]1O[C@@H]([C@@H](CC)C(=O)O)CC[C@@H]1C)[C@H]1O[C@]2(C=C[C@@H](NC(=S)Nc3ccc(Cl)cc3)[C@]3(CC[C@@](C)([C@H]4CC[C@](O)(CC)[C@H](C)O4)O3)O2)[C@H](C)C[C@@H]1C [FLC-00378-1] . Reported log10(IC50)?
*A* 0.52

*Q* Item under review: CC[C@@H](C(=O)[C@@H](C)[C@@H](O)[C@H](C)[C@@H]1O[C@@H]([C@@H](CC)C(=O)O)CC[C@@H]1C)[C@H]1O[C@]2(C=C[C@@H](NC(=O)Nc3ccc(F)cc3)[C@]3(CC[C@@](C)([C@H]4CC[C@](O)(CC)[C@H](C)O4)O3)O2)[C@H](C)C[C@@H]1C [FLC-00363-1] . Reported log10(IC50)?
*A* 0.61

*Q* Item under review: CCOC(=O)CNC(=S)N[C@@H]1C=C[C@]2(O[C@H]([C@@H](CC)C(=O)[C@@H](C)[C@@H](O)[C@H](C)[C@@H]3O[C@@H]([C@@H](CC)C(=O)O)CC[C@@H]3C)[C@@H](C)C[C@H]2C)O[C@@]12CC[C@@](C)([C@H]1CC[C@](O)(CC)[C@H](C)O1)O2 [FLC-00352-1] . Reported log10(IC50)?
*A* 1.66

---

- Tested on: NCI-H23 (human lung cancer)
- test description: In vitro cytotoxicity, SRB assay, NCI-H23
- Format: cell-based
- condition context: Homo sapiens, NCI-H23; 72 h with compound, SRB; n/a = non-active compound; read-out: NCI-H23 IC50
reported property: pIC50
API: returns pIC50 as number; meaning -log10 of concentration in mol/L.

>>> measurement("CCNC(=O)N[C@@H]1C=C[C@]2(O[C@H]([C@@H](CC)C(=O)[C@@H](C)[C@@H](O)[C@H](C)[C@@H]3O[C@@H]([C@@H](CC)C(=O)O)CC[C@@H]3C)[C@@H](C)C[C@H]2C)O[C@@]12CC[C@@](C)([C@H]1CC[C@](O)(CC)[C@H](C)O1)O2")
6.95

*Q* Item under review: `CC[C@@H](C(=O)[C@@H](C)[C@@H](O)[C@H](C)[C@@H]1O[C@@H]([C@@H](CC)C(=O)O)CC[C@@H]1C)[C@H]1O[C@]2(C=C[C@@H](NC(=S)Nc3ccc(Cl)cc3)[C@]3(CC[C@@](C)([C@H]4CC[C@](O)(CC)[C@H](C)O4)O3)O2)[C@H](C)C[C@@H]1C` . Reported pIC50?
*A* 8.39

*Q* Item under review: `CC[C@@H](C(=O)[C@@H](C)[C@@H](O)[C@H](C)[C@@H]1O[C@@H]([C@@H](CC)C(=O)O)CC[C@@H]1C)[C@H]1O[C@]2(C=C[C@@H](NC(=O)NC(=O)C(Cl)(Cl)Cl)[C@]3(CC[C@@](C)([C@H]4CC[C@](O)(CC)[C@H](C)O4)O3)O2)[C@H](C)C[C@@H]1C` . Reported pIC50?
*A* 6.17
